assay_method_text: AUC in Brown Norway rat at 10 mg/kg, po
Assay type: ADME, organism-based
Set-up: dose 10 mg/kg, route oral
assay_conditions: plasma
Give yes when the value for AUC is at least 1000 ng·h/mL. Give no when it is less.

Some entries whose results are on file:
| query_smiles | cat |
| --- | --- |
| C[C@@H]1C[C@H]2[C@@H]3CCC4=CC(=O)C=C[C@]4(C)[C@H]3[C@@H](O)C[C@]2(C)[C@@]1(O)C(=O)CSc1nc2cccnc2s1 | yes |
| C[C@]12C=CC(=O)C=C1CC[C@@H]1[C@@H]2[C@@H](O)C[C@@]2(C)[C@H]1CC[C@]2(O)C(=O)CSc1ccc2ccccc2n1 | yes |
| C[C@]12C=CC(=O)C=C1CC[C@@H]1[C@@H]2[C@@H](O)C[C@@]2(C)[C@H]1CC[C@]2(O)C(=O)CSc1nc2ccccc2s1 | yes |
| C[C@]12C=CC(=O)C=C1CC[C@@H]1[C@@H]2[C@@H](O)C[C@@]2(C)[C@H]1CC[C@]2(O)C(=O)CO | yes |
| C[C@]12C=CC(=O)C=C1CC[C@@H]1[C@@H]2[C@@H](O)C[C@@]2(C)[C@H]1CC[C@]2(O)C(=O)CSc1nc2ccccc2o1 | no |

Task item: Evaluate C[C@]12C=CC(=O)C=C1CC[C@@H]1[C@@H]2[C@@H](O)C[C@@]2(C)[C@H]1CC[C@]2(O)C(=O)CSc1ncc2ccccc2n1 : AUC at minimum 1000 ng·h/mL?
Reply: no

Task item: # bool: AUC of C[C@]12C=CC(=O)C=C1CC[C@@H]1[C@@H]2[C@@H](O)C[C@@]2(C)[C@H]1CC[C@]2(O)C(=O)CSc1nc2ncccc2o1 >= 1000 ng·h/mL
Reply: yes

Task item: AUC >= 1000 ng·h/mL for Cn1c(SCC(=O)[C@@]2(O)CC[C@H]3[C@@H]4CCC5=CC(=O)C=C[C@]5(C)[C@H]4[C@@H](O)C[C@@]32C)nc2ccccc21 ?
Reply: no

Task item: Please indicate if the recorded AUC for C[C@@H]1C[C@H]2[C@@H]3CCC4=CC(=O)C=C[C@]4(C)[C@H]3[C@@H](O)C[C@]2(C)[C@@]1(O)C(=O)CSc1ccc2ccccc2n1 meets or exceeds 1000 ng·h/mL.
Reply: yes

Task item: AUC >= 1000 ng·h/mL for C[C@@H]1C[C@H]2[C@@H]3CCC4=CC(=O)C=C[C@]4(C)[C@H]3[C@@H](O)C[C@]2(C)[C@@]1(O)C(=O)CSc1cnc2ccccc2n1 ?
Reply: yes

====

assay_target: Glucocorticoid receptor (Rattus norvegicus, UniProt P06536)
Sequence (P06536 whole entry): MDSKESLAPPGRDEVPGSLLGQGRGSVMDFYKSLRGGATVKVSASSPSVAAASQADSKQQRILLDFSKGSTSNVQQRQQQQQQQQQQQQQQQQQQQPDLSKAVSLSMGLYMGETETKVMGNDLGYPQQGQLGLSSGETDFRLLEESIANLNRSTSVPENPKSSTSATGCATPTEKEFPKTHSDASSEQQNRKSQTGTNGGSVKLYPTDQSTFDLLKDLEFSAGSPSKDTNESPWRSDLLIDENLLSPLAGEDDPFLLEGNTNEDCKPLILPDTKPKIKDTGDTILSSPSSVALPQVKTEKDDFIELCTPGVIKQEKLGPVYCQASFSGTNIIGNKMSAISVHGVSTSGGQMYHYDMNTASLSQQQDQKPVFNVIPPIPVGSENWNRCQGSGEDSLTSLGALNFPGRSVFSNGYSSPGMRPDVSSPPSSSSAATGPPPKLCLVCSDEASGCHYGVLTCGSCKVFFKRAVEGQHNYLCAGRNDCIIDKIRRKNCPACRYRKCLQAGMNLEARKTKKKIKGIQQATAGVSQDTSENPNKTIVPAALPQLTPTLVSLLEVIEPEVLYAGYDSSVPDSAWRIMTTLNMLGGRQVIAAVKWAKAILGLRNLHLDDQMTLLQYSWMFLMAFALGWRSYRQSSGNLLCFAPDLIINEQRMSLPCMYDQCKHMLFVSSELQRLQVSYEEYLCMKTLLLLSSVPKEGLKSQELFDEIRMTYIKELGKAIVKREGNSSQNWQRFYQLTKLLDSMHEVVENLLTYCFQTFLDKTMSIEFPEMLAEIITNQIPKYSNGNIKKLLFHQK
assay_method_text: Transactivation of glucocorticoid receptor in rat H42E cells assessed as induction of TAT measuring degradation of tyrosine to p-hydroxy phenyl pyruvate at 1 uM relative to prednisolone
Assay type: cell-based
assay_conditions: read-out: Efficacy
measure_name: Emax at 1 µM (%)
Quick note: give the figure in %, leave out the unit.

| query_smiles | assay_target | Emax at 1 µM, % |
| --- | --- | --- |
| C[C@]12C=CC(=O)C=C1CC[C@@H]1[C@@H]2[C@@H](O)C[C@@]2(C)[C@H]1CC[C@]2(O)C(=O)CSc1nc2ncccc2o1 | Glucocorticoid receptor (Rattus norvegicus, UniProt P06536) | 29 |
| C[C@@H]1C[C@H]2[C@@H]3CCC4=CC(=O)C=C[C@]4(C)[C@H]3[C@@H](O)C[C@]2(C)[C@@]1(O)C(=O)CSc1nccc2ccccc12 | Glucocorticoid receptor (Rattus norvegicus, UniProt P06536) | 6 |

Task item: Glucocorticoid receptor (Rattus norvegicus, UniProt P06536) / Emax at 1 µM / Cc1cccc(SCC(=O)[C@@]2(O)[C@H](C)C[C@H]3[C@@H]4CCC5=CC(=O)C=C[C@]5(C)[C@H]4[C@@H](O)C[C@@]32C)n1 : value?
Reply: 29

Task item: Return Emax at 1 µM measured with Glucocorticoid receptor (Rattus norvegicus, UniProt P06536) given this molecule: C[C@@H]1C[C@H]2[C@@H]3CCC4=CC(=O)C=C[C@]4(C)[C@H]3[C@@H](O)C[C@]2(C)[C@@]1(O)C(=O)CSc1nc2ncccc2o1
Reply: 37

Task item: Form field - read-out: Emax at 1 µM; system: Glucocorticoid receptor (Rattus norvegicus, UniProt P06536); submitted item: C[C@]12C=CC(=O)C=C1CC[C@@H]1[C@@H]2[C@@H](O)C[C@@]2(C)[C@H]1CC[C@]2(O)C(=O)CSc1nc2cccnc2s1
Reply: 7

Task item: API: value(readout=Emax at 1 µM, system=Glucocorticoid receptor (Rattus norvegicus, UniProt P06536)) for record C[C@]12C=CC(=O)C=C1CC[C@@H]1[C@@H]2[C@@H](O)C[C@@]2(C)[C@H]1CC[C@]2(O)C(=O)CSc1nc2ccccc2o1
Reply: 32
